subject.of.test: EPHA1 (human)
test.method.notes: radiometric filter-binding kinase assay, Kinase HotSpot
study.conditions: compound 0.5 µM; ATP 10 µM
Kindly state residual activity for each of the entries shown.

input: Fill in the recorded residual activity for this molecule, with EPHA1 (human) as test system: CS(=O)(=O)CCNCc1ccc(-c2ccc3ncnc(Nc4ccc(OCc5cccc(F)c5)c(Cl)c4)c3c2)o1
output: 99.3%

input: Cc1cncc2cccc(S(=O)(=O)N3CCCN(C(=O)CN)C[C@H]3C)c12 , same question.
output: 89.2%

input: CO[C@@H]1[C@H](N(C)C(=O)c2ccccc2)C[C@H]2O[C@]1(C)n1c3ccccc3c3c4c(c5c6ccccc6n2c5c31)C(=O)NC4 , same question.
output: 93.5%

input: O=C1C(Cl)=C(N2C(=O)CCC2=O)C(=O)c2ccccc21 , same question.
output: 97.6%

input: CCCCc1c(-c2ccc(OC)cc2)[nH]c2nccnc12 , same question.
output: 67.9%

input: c1ccc2c(-c3ccncc3)c[nH]c2c1 , same question.
output: 105%

input: O=C1c2ccccc2-c2nc3nnnn3nc21 , same question.
output: 73.1%

input: CN(C)CCCn1cc(C2=C(c3c[nH]c4ccccc34)C(=O)NC2=O)c2ccccc21 , same question.
output: 89.9%

input: O=C1Nc2ccc(Br)cc2/C1=C\c1cc2c([nH]1)CCCC2 , same question.
output: 93.1%

input: COc1cc2ncnc(Nc3ccc(Oc4ccccc4)cc3)c2cc1OC , same question.
output: 95.6%

input: N#C/C(=C\c1ccc(O)c(O)c1)C(=O)NCc1ccccc1 , same question.
output: 99.4%

input: N#Cc1c[nH]c2c[nH]/c(=N\Cc3cccnc3)cc2/c1=N\c1ccc(F)c(Cl)c1 , same question.
output: 94.5%

input: CN(C)S(=O)(=O)c1ccc2c(c1)/C(=C/c1cc3c([nH]1)CCCC3)C(=O)N2 , same question.
output: 94.5%

input: Cn1c2ccccc2c2c3c(c4c5ccccc5n(CCC#N)c4c21)CNC3=O , same question.
output: 81.6%

input: COc1cc2ncnc(Nc3ccc(OCc4ccccc4)cc3)c2cc1OC , same question.
output: 102%

input: C[C@@H]1CCN(C(=O)CC#N)C[C@@H]1N(C)c1ncnc2[nH]ccc12 , same question.
output: 98%

input: Cc1nc(-c2ccccc2)c(-c2ccncc2)o1 , same question.
output: 93.8%

input: CC(C)(C)c1cc(C=C(C#N)C#N)cc(Br)c1O , same question.
output: 85.1%

input: COc1ccc(Cl)cc1NC(=O)Nc1cc(C)nc2ccccc12 , same question.
output: 88.6%

input: O=C1NC(=O)c2c1c1c3ccccc3[nH]c1n1cncc21 , same question.
output: 72.4%

* * *

subject.of.test: ERBB4 (human) (UniProt Q15303)
Sequence (Q15303 whole entry, looked up): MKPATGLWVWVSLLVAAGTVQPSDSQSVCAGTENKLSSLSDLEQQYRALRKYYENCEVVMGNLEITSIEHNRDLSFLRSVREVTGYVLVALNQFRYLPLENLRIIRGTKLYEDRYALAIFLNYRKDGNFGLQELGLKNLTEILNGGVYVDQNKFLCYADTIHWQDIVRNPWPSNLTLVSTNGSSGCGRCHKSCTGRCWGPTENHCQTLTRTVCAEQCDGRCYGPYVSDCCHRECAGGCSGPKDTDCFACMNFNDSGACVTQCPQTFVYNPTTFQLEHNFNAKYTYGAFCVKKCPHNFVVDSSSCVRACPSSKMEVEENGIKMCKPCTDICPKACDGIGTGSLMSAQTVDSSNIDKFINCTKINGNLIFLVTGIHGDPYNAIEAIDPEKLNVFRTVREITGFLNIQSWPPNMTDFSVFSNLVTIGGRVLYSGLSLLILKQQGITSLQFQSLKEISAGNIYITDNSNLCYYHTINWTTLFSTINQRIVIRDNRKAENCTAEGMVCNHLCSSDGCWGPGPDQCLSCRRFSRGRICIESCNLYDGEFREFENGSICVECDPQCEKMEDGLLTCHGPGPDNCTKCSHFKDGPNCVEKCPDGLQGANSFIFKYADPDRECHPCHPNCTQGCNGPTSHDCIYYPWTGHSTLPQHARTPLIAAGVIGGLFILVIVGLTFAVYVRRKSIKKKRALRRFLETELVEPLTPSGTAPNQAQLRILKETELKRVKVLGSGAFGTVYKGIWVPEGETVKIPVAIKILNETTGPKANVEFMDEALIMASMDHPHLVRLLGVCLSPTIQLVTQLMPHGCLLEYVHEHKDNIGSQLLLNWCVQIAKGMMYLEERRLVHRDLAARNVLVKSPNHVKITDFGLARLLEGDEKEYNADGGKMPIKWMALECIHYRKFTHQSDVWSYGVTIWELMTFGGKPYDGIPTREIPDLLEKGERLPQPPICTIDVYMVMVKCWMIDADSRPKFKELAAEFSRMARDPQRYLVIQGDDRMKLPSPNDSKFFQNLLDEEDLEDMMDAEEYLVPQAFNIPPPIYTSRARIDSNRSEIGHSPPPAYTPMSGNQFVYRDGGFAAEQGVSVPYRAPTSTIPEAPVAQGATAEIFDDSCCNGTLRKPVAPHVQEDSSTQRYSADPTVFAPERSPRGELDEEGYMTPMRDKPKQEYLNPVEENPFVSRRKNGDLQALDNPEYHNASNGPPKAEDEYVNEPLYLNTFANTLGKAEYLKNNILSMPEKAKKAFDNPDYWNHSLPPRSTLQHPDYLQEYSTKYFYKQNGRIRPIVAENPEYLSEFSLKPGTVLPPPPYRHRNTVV
test.method.notes: radiometric filter-binding kinase assay, Kinase HotSpot
study.conditions: compound 0.5 µM; ATP 10 µM
Kindly state residual activity for each of the entries shown.
Return type: number; implicit unit %.

input: Value lookup for residual activity; key = O=C1NC(=O)c2c1c1c3ccccc3[nH]c1n1cncc21
output: 102

input: N#C/C(=C\c1ccc(O)c(O)c1)C(=O)NCc1ccccc1 , same question.
output: 80.9

input: CN(C)S(=O)(=O)c1ccc2c(c1)/C(=C/c1cc3c([nH]1)CCCC3)C(=O)N2 , same question.
output: 106

input: N#Cc1c[nH]c2c[nH]/c(=N\Cc3cccnc3)cc2/c1=N\c1ccc(F)c(Cl)c1 , same question.
output: 72.6

input: COc1ccc2c(c1)c(C1=C(c3c[nH]c4ccccc34)C(=O)NC1=O)cn2CCCN(C)C , same question.
output: 93.4

input: COc1ccc(C(=O)Nc2sc3c(c2C(N)=O)CCCC3)cc1OC , same question.
output: 97.2

input: C[C@@H]1CCN(C(=O)CC#N)C[C@@H]1N(C)c1ncnc2[nH]ccc12 , same question.
output: 100

input: CN(C)CCCn1cc(C2=C(c3c[nH]c4ccccc34)C(=O)NC2=O)c2ccccc21 , same question.
output: 87.7

input: COc1cc2ncnc(Nc3ccc(Oc4ccccc4)cc3)c2cc1OC , same question.
output: 8.79

input: CS(=O)(=O)CCNCc1ccc(-c2ccc3ncnc(Nc4ccc(OCc5cccc(F)c5)c(Cl)c4)c3c2)o1 , same question.
output: 11.2

input: Cc1cncc2cccc(S(=O)(=O)N3CCCN(C(=O)CN)C[C@H]3C)c12 , same question.
output: 78.4

input: COc1cc2ncnc(Nc3ccc(OCc4ccccc4)cc3)c2cc1OC , same question.
output: 9.19

input: CC(C)(C)c1cc(C=C(C#N)C#N)cc(Br)c1O , same question.
output: 94

input: O=C1Nc2ccc(Br)cc2/C1=C\c1cc2c([nH]1)CCCC2 , same question.
output: 84.6

input: Ic1cccc(CSc2nnc(-c3ccncc3)o2)c1 , same question.
output: 96.4

input: c1ccc2c(-c3ccncc3)c[nH]c2c1 , same question.
output: 83.7

input: Cc1cccc(-c2nc(C(C)(C)C)[nH]c2-c2ccc3c(c2)OCO3)n1 , same question.
output: 83.1

input: COc1ccc(Cl)cc1NC(=O)Nc1cc(C)nc2ccccc12 , same question.
output: 97.8

input: O=C(c1cc2cc(O)ccc2[nH]1)c1cc2cc(O)ccc2[nH]1 , same question.
output: 102
